Molecular target: human EGFR (native sequence) (Homo sapiens)
Assay: Kinase inhibition, human EGFR (native sequence)
Format: biochemical
Conditions: 10 μM ATP; 10 pt curves, 3 μM top concentration (singlicates)
Method: Kinase inhibitory activity of the compounds was measured against human EGFR (native sequence) and against EGFR bearing the L858R mution and the L858R/T790M double mutation (EGFR, L858R, and L858R/T790M, respectively in Table 1). Additional assays can be conducted with EGFR deletion mutants such as delE746-A750 with or without the additional T790M mutation. Assay conditions included 10 pt curves with 3 μM top concentration (singlicates) and 10 μM ATP.
measurement.label: IC50

Check out these entries, answers already filled in.
{"molecule": "C=CC(=O)Nc1cc(Nc2ncc(Cl)c(Nc3ccccc3P(C)(C)=O)n2)c(OC)cc1OC(COC)CN(C)C (stereo not shown)", "assayed.system": "human EGFR (native sequence) (Homo sapiens)", "IC50": "< 51 nM"}
{"molecule": "C=CC(=O)Nc1ccc(OC)c(Nc2ncc(Cl)c(Nc3cccc(C)c3P(C)(C)=O)n2)c1", "assayed.system": "human EGFR (native sequence) (Homo sapiens)", "IC50": "51 to 100 nM"}
{"molecule": "C=CC(=O)Nc1ccc(OC)c(Nc2ncc(C3CC3)c(Nc3ccccc3P(C)(C)=O)n2)c1", "assayed.system": "human EGFR (native sequence) (Homo sapiens)", "IC50": "51 to 100 nM"}

Next molecule, IC50 to be filled in.
# get_value(readout= IC50, system= human EGFR (native sequence) (Homo sapiens)) for C=C(C)C(=O)Nc1ccc(OC)c(Nc2ncc(Cl)c(Nc3ccccc3P(C)(C)=O)n2)c1
≥ 250 nM

###

IC50 values for the compounds below.
Target: human EGFR (native sequence) (Homo sapiens, UniProt P00533)
Sequence (P00533 25-1210): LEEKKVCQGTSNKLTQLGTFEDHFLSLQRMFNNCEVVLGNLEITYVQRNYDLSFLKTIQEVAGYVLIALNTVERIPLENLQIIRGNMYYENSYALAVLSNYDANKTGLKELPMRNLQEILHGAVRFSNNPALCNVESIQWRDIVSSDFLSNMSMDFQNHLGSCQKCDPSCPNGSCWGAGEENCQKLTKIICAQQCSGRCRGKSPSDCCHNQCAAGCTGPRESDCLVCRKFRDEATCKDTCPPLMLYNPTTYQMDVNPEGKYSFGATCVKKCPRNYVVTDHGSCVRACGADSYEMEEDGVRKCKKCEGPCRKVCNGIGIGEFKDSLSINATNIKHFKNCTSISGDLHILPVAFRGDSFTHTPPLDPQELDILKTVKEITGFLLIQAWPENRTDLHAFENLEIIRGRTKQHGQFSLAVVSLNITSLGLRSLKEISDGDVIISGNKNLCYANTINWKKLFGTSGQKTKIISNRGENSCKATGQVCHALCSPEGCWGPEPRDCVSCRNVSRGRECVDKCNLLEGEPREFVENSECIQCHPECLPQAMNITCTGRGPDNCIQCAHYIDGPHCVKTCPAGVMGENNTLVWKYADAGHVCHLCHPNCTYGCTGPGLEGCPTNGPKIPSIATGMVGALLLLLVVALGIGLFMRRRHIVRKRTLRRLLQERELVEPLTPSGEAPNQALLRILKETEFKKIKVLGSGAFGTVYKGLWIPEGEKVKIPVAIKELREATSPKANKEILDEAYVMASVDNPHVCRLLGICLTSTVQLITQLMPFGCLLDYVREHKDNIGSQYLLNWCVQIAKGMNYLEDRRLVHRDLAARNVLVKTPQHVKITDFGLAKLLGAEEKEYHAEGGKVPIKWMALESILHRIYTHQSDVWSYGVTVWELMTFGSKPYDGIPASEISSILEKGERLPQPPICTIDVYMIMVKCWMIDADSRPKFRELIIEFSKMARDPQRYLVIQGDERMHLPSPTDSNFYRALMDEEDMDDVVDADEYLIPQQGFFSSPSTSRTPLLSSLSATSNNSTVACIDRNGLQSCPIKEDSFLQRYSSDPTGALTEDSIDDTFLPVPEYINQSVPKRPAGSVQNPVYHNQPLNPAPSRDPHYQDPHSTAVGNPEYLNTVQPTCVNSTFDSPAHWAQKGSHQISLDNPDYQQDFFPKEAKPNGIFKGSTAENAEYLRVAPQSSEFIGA
Experiment: Kinase inhibition, human EGFR (native sequence)
Assay type: biochemical
Conditions: 10 μM ATP; 10 pt curves, 3 μM top concentration (singlicates)

{"compound": "COc1cc(P(C)(C)=O)ccc1Nc1ncc(Cl)c(Oc2cccc(NC(=O)/C=C/CN(C)C)c2)n1", "measurement.label": "IC50", "obs.value": "51 to 100 nM"}
{"compound": "C=CC(=O)N[C@@H]1CCC[C@@H](Nc2ncc(Cl)c(Nc3ccccc3P(C)(C)=O)n2)C1 (racemic)", "measurement.label": "IC50", "obs.value": "≥ 250 nM"}

# get_value(readout= IC50, system= human EGFR (native sequence) (Homo sapiens, UniProt P00533)) for C=CC(=O)Nc1cc(Nc2ncc(Cl)c(Nc3ccc(F)cc3P(C)(C)=O)n2)c(OC)cc1F
51 to 100 nM

###

Biological target: human EGFR (native sequence) (Homo sapiens)
Assay: Kinase inhibition, human EGFR (native sequence)
Type: biochemical
Conditions: 10 μM ATP; 10 pt curves, 3 μM top concentration (singlicates)
IC50 values for the molecules below.

Check out these entries, answers already filled in.
{"molecule": "C=CC(=O)Nc1ccc(OC)c(Nc2ncc(CC)c(Nc3ccccc3P(C)(C)=O)n2)c1 [Example 63]", "obs.value": "< 51 nM"}
{"molecule": "C=CC(=O)Nc1cc(Nc2ncc(Cl)c(Nc3ccccc3P(C)(C)=O)n2)c(OC)cc1OC [Example 20]", "obs.value": "≥ 250 nM"}
{"molecule": "COc1ccc(NC(=O)/C=C/CN(C)C)cc1Nc1ncc(Cl)c(Nc2ccccc2P(C)(C)=O)n1 [Example 2]", "obs.value": "101 to 250 nM"}
{"molecule": "C=CC(=O)Nc1ccc(OC)c(Nc2nccc(Nc3ccccc3P(C)(C)=O)n2)c1 [Example 13]", "obs.value": "≥ 250 nM"}
{"molecule": "C=CC(=O)Nc1cc(Nc2ncc(Cl)c(Nc3ccccc3P(C)(C)=O)n2)c(OC)cc1OC1CCOC1 (centres unmarked) [Example 24]", "obs.value": "≥ 250 nM"}

# get_value(readout= IC50, system= human EGFR (native sequence) (Homo sapiens)) for C=CC(=O)Nc1cc(Nc2ncc(Cl)c(Nc3ccccc3P(C)(C)=O)n2)c(OC)cc1N1CCN(C)CC1 [Example 18]
51 to 100 nM

# get_value(readout= IC50, system= human EGFR (native sequence) (Homo sapiens)) for C=CC(=O)Nc1ccc(OC)c(Nc2ncc(F)c(Nc3ccccc3P(C)(C)=O)n2)c1 [Example 11]
101 to 250 nM

# get_value(readout= IC50, system= human EGFR (native sequence) (Homo sapiens)) for C=C(CN(C(C)C)C(C)C)C(=O)Nc1ccc(OC)c(Nc2ncc(Cl)c(Nc3ccccc3P(C)(C)=O)n2)c1 [Example 35]
< 51 nM
